test: S. cerevisiae growth modulation with rapamycin, primary screen, strain BY4716, OD600, 96 h (AID 1091); details: higher = more signal, called active from +8 up or from −8 down; further: test concentration not given here
Test readout: z-score

Molecule | Test readout | Readout value
CCOC(=O)[C@H](CC(C)C)NC(=O)CCC1CC(OC(=O)NCc2ccc3c(c2)OCO3)CC2(CCCC(COC(=O)NCc3ccccc3)O2)O1 (stereo partly drawn) | z-score | 0.0835
CC[C@@H](c1ccccc1)n1c(=O)n2n(c1=O)[C@H]1[C@H](O)[C@@H]3O[C@@H]3C(=NOCc3ccccc3)[C@H]1CC2 | z-score | 0.191
CC(=O)OC[C@H]1O[C@H](CC=NOC(C)CN2CCCc3nc(C)c(C)cc32)C=C[C@@H]1OC(C)=O (stereo partly drawn) | z-score | -0.344

---

Readings of composite z-score for the listed compounds
target: Neurogenic locus notch homolog protein 3 (Homo sapiens); test: NOTCH3 binders on small-molecule microarray, primary screen, biochemical, 635/667 nm fluorescence (AID 1096); conditions: NOTCH3 binding, 635 nm fluorescence, higher = more signal

Compound | composite z-score
CC(CCN1CCCc2nc(C)c(C)cc21)=NOC[C@@H](O)COCc1ccco1 | 1.07
COc1ccc(OC[C@H]2CN3[C@@H](CC[C@@H](C)[C@@H]3c3ccc(Br)cc3)C(=O)O2)cc1 | -0.175
CC(C)=CCCC(C)=CCON=C1C[C@@H](O)[C@@H](O)[C@@H]2[C@@H]3C(=O)N(Cc4ccc5c(c4)OCO5)C(=O)[C@@H]3CC[C@@H]12 | 0.983
CCN1C(=O)[C@H]2[C@H]3[C@H](O)[C@H](O)CC(=NO[C@@H]4O[C@H](CO)[C@@H](O)[C@H](O)[C@H]4O)[C@H]3CC[C@H]2C1=O | 0.65
CCOC(=O)[C@H](CC(C)C)NC(=O)CCC1CC(OC(=O)NCc2ccc3c(c2)OCO3)CC2(CCCC(COC(=O)NCc3ccccc3)O2)O1 (stereo partly specified) | 0.845
CC[C@@H](c1ccccc1)n1c(=O)n2n(c1=O)[C@H]1[C@H](O)[C@@H]3O[C@@H]3C(=NOCc3ccccc3)[C@H]1CC2 | 0.81

---

target: Calmodulin-1 (Homo sapiens); test: CALM1 binders on microarrays, EGTA buffer, profiling panel, biochemical, small-molecule microarray, Cy5-labelled CALM1 (AID 1111); conditions: Cy5-CALM1 binding fluorescence, higher = more signal;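 further: labelled calmodulin applied in Tris saline Tween buffer holding calcium plus EGTA and DTT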
Readings of composite z-score for the listed compounds

Compound | Study target | composite z-score
CC(CCN1CCc2nc(-c3ccccc3)c(-c3ccccc3)cc2C1)=NO[C@H](C)c1cn([C@H](CO)Cc2ccccc2)nn1 | Calmodulin-1 (Homo sapiens) | 0.0521
COC(=O)[C@H](C)NC(=O)CCC1CC(OC(=O)NCCc2ccc(F)cc2)CC2(CCCC(COC(=O)NCc3ccccc3)O2)O1 (stereo partly specified) | Calmodulin-1 (Homo sapiens) | 0.516
O=C1CCCC=C1C(O)c1ccc([N+](=O)[O-])cc1 (stereo unspecified) | Calmodulin-1 (Homo sapiens) | -0.79
COc1ccc(-c2cnnc(CCCn3ccnc3-c3ccccc3)n2)cc1 | Calmodulin-1 (Homo sapiens) | 0.212
CC(C)(C)N1C(=O)[C@H]2[C@H]3[C@H](O)[C@H](O)CC(=NOC[C@@H](O)COCc4ccco4)[C@@H]3CC[C@H]2C1=O | Calmodulin-1 (Homo sapiens) | -0.235
CC1(C)O[C@H]2O[C@H]([C@H](O)CON=C3[C@H]4CCn5c(=O)n(-c6ccccc6)c(=O)n5[C@H]4[C@H](O)[C@@H]4O[C@H]34)[C@H](O)[C@H]2O1 | Calmodulin-1 (Homo sapiens) | 0.759
COC(=O)CC=C[C@@H](C)[C@@H](C=NOC(C)CN1CCCc2nc(C)c(C)cc21)NS(=O)(=O)c1ccc(C)cc1 (stereo partly specified) | Calmodulin-1 (Homo sapiens) | -0.481
COC(=O)CC=C[C@@H](C)[C@@H](C=NOC[C@@H](O)COCc1ccco1)OC | Calmodulin-1 (Homo sapiens) | -0.809
CC(C)=NOC(C)CN1CCCCc2nc(C)c(C)cc21 (stereo unspecified) | Calmodulin-1 (Homo sapiens) | -0.254
CCOC(=O)CCN1C(=O)[C@H]2[C@H]3[C@H](O)[C@H](O)CC(=NO[C@@H]4O[C@H](CO)[C@@H](O)[C@H](O)[C@H]4O)[C@@H]3CC[C@H]2C1=O | Calmodulin-1 (Homo sapiens) | -0.896
CCN1C(=O)[C@H]2[C@H]3[C@H](O)[C@H](O)CC(=NO[C@@H]4O[C@H](COC(C)=O)[C@@H](OC(C)=O)[C@H](OC(C)=O)[C@H]4OC(C)=O)[C@@H]3CC[C@H]2C1=O | Calmodulin-1 (Homo sapiens) | -0.41
COc1ccc(COC(=O)NN=C2C[C@@H](O)[C@@H](O)[C@@H]3[C@@H]4C(=O)N([C@@H](C)c5ccccc5)C(=O)[C@@H]4CC[C@H]23)cc1 | Calmodulin-1 (Homo sapiens) | -0.0436
CC(=O)OC[C@H]1O[C@H](C#CCCc2ccccc2)C=C[C@@H]1OC(C)=O | Calmodulin-1 (Homo sapiens) | -0.288
COC(=O)C1=C(C)N(Cc2ccccc2)C2=C3C(=O)OCC[C@@H]3[C@@](O)(C(=O)OC)C(=O)N2[C@@H]1c1ccccc1 | Calmodulin-1 (Homo sapiens) | -0.0583
O=C(NN=C1C[C@@H](O)[C@@H](O)[C@@H]2[C@@H]3C(=O)N(Cc4ccc5c(c4)OCO5)C(=O)[C@@H]3CC[C@@H]12)OCc1ccccc1 | Calmodulin-1 (Homo sapiens) | -0.114
COC(=O)CC=C[C@@H](C)[C@@H](C=NOC(C)CN1CCCCc2nc(C)c(C)cc21)NS(=O)(=O)c1ccc(C)cc1 (stereo partly specified) | Calmodulin-1 (Homo sapiens) | -0.344
CC(CCN1CCCCc2nc(C)c(C)cc21)=NO[C@H](C)c1cn([C@@H]2COC[C@H]2O)nn1 | Calmodulin-1 (Homo sapiens) | -0.197
CC(C)(C)N1C(=O)[C@H]2[C@@H]3C(=CC[C@H]2C1=O)C(=O)[C@H]1O[C@H]1[C@H]3O | Calmodulin-1 (Homo sapiens) | -1.08
CCN1C(=O)[C@H]2[C@H]3[C@H](O)[C@H](O)CC(=NOC[C@@H](O)[C@H]4O[C@@H]5OC(C)(C)O[C@@H]5[C@H]4O)[C@@H]3CC[C@H]2C1=O | Calmodulin-1 (Homo sapiens) | -0.154
CON=C(C)CCN1CCCCc2nc(C)c(C)cc21 | Calmodulin-1 (Homo sapiens) | -0.327
COC(=O)[C@@H]1CC[C@H](C)[C@@H](c2ccc(C)cc2)N1C(=O)c1ccc(C=NOC[C@H]2O[C@H](c3ccccc3)C=C[C@@H]2Oc2ccc(OC)cc2)cc1 | Calmodulin-1 (Homo sapiens) | -0.156

---

Readings of z-score for the listed compounds
test: PSAC antagonists in infected red cells, primary screen, cell-based, P. falciparum Indochina, OD700, 2 h (AID 1155);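 further: lysis reports solute entry through the parasite surface anion channel PSAC; channel blockers reduce lysis of infected cells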; conditions: P. falciparum Indochina infected erythrocytes, osmotic lysis OD700; higher = more signal, called active from +8 up or from −8 down
Test readout: z-score

Compound | Readout value
COC(=O)[C@H](C)NC(=O)CCC1CC(OC(=O)NCc2cccc3ccccc23)CC2(CCCC(COC(=O)NCc3ccccc3)O2)O1 (stereo partly specified) | -0.254
CC(C)=CCCC(C)=CCON=C1C[C@@H](O)[C@@H](O)[C@@H]2[C@@H]3C(=O)N([C@@H](C)c4ccccc4)C(=O)[C@@H]3CC[C@@H]12 | -0.168
C[C@@H](c1ccccc1)N1C(=O)[C@H]2[C@H]3[C@H](O)[C@H](O)CC(=NOCc4ccccc4)[C@@H]3CC[C@H]2C1=O | 0.117
O=C1[C@H]2[C@H]3[C@H](O)[C@H](O)CC(=NOC[C@@H](O)COCc4ccco4)[C@@H]3CC[C@H]2C(=O)N1C1CCCCC1 | 0.409
Cc1ccc(S(=O)(=O)N[C@@H]2COC(=O)CC=C[C@@H](C)[C@H](NS(=O)(=O)c3ccc(C)cc3)COC(=O)[C@H](C)NC(=O)CC=C[C@H]2C)cc1 | -0.159
CCN1C(=O)[C@H]2[C@H]3[C@H](O)[C@H](O)CC(=NO[C@@H]4O[C@H](CO)[C@@H](O)[C@H](O)[C@H]4O)[C@H]3CC[C@H]2C1=O | 0.0108
CC(C)=CCCC(C)=CCON=C1C[C@@H](O)[C@@H](O)[C@@H]2[C@@H]3C(=O)N(Cc4ccc5c(c4)OCO5)C(=O)[C@@H]3CC[C@@H]12 | 5.69
CCN1C(C)=C(C(=O)OC)[C@@H](c2ccccc2)N2C(=O)[C@](O)(C(=O)OC)CC(C(C)=O)=C12 | 0.893
CC(=O)OC[C@H]1O[C@@H](ON=C(C)C)[C@H](OC(C)=O)[C@@H](OC(C)=O)[C@@H]1OC(C)=O | 1.12
COC(=O)[C@H](C)NC(=O)CCC1CC(OC(=O)NCCc2ccc(F)cc2)CC2(CCCC(COC(=O)NCCc3ccccc3OC)O2)O1 (stereo partly specified) | 0.0923
CC(CCN1CCc2nc(-c3ccccc3)c(-c3ccccc3)cc2C1)=NO[C@@H](C)c1cc(-c2c(C)cc(C)cc2C)no1 | -0.429
C#CCCCON=C1C[C@@H](O)[C@@H](O)[C@@H]2[C@@H]3C(=O)N(CC)C(=O)[C@@H]3CC[C@H]12 | 0.238
COc1cccc([C@H]2Oc3ccc(OC)cc3C(=NOCC[C@@H]3C=C[C@H](OC(C)=O)[C@@H](COC(C)=O)O3)[C@@H]2O)c1 | 0.236
COC(=O)[C@H](C)NC(=O)CCC1CC(OC(=O)NCc2cccc3ccccc23)CC2(CCCC(COC(=O)NCCC(C)C)O2)O1 (stereo partly specified) | 0.663
CC(CCN1CCCc2nc(C)c(C)cc21)=NO[C@@H](C)c1cn([C@H](CO)Cc2ccccc2)nn1 | 0.0178
CC(=O)OC[C@H]1O[C@@H](ON=C(C)CCN2CCCCc3nc(C)c(C)cc32)[C@H](OC(C)=O)[C@@H](OC(C)=O)[C@@H]1OC(C)=O | -0.558
O=C1C=C[C@@H](O)[C@@H]2[C@@H]3C(=O)N(c4cccc(Oc5ccccc5)c4)C(=O)[C@@H]3CC[C@@H]12 | -0.158
COc1ccc(O[C@H]2C=C[C@@H](c3ccccc3)O[C@@H]2CON=C2c3cc(OC)ccc3O[C@H](c3cccc(OC)c3)[C@H]2O)cc1 | 1.12
O=C1C=C[C@@H](O)[C@@H]2[C@@H]3C(=O)N(Cc4ccccc4)C(=O)[C@@H]3CC[C@@H]12 | 0.201
C=CCOCC1CN2[C@@H](CC[C@@H](C)[C@@H]2c2ccc(Br)cc2)C(=O)O1 (stereo partly specified) | 0.456
CC(=O)OC[C@H]1O[C@H](CC=NO[C@@H](C)c2cc(-c3c(C)cc(C)cc3C)no2)C=C[C@@H]1OC(C)=O | 0.629
